Taken from the supplement of paper PMC12494721.

Tested on: Escherichia coli IAI1
Assay: fold change of Cadaverine concentration vs plate DMSO controls (fold change (ratio)); higher = more amine produced, active = hit call of the paper (significant change in both replicates, either direction)
Conditions: incubation time: 27 h, anaerobic, 37 °C
Where a name gives a salt, the structure may show the parent alone.
fold change of Cadaverine concentration overview
Returns: the value as a bare number; no unit string appended.

Use these answered entries as a reference point.
molecule: C=C(NC(=O)C(=C)NC(=O)c1csc(C2=N[C@@H]3c4csc(n4)[C@H]4NC(=O)c5csc(n5)[C@H]([C@](C)(O)[C@@H](C)O)NC(=O)[C@H]5CSC(=N5)/C(=C/C)NC(=O)[C@H]([C@@H](C)O)NC(=O)c5csc(n5)[C@]3(CC2)NC(=O)[C@H](C)NC(=O)C(=C)NC(=O)[C@H](C)NC(=O)[C@H]([C@@H](C)CC)N[C@@H]2C=Cc3c([C@H](C)O)cc(nc3[C@H]2O)C(=O)O[C@@H]4C)n1)C(N)=O [Thiostrepton] (20 µM)
fold change of Cadaverine concentration: 1.02

molecule: Cc1cccc(Nc2ccccc2C(=O)O)c1C [Mefenamic acid] (20 µM)
fold change of Cadaverine concentration: 0.976

molecule: CCN(CC)CCCC(C)Nc1ccnc2cc(Cl)ccc12 (stereo not drawn) [Chloroquine diphosphate] (20 µM)
fold change of Cadaverine concentration: 0.962

molecule: O=C(N[C@H](CO)[C@H](O)c1ccc([N+](=O)[O-])cc1)C(Cl)Cl [Chloramphenicol] (20 µM)
fold change of Cadaverine concentration: 0.0844

molecule: C[C@H]1[C@@H](O)O[C@@H]2O[C@@]3(C)CC[C@H]4[C@H](C)CC[C@@H]1[C@@]24OO3 [Artenimol] (20 µM)
fold change of Cadaverine concentration: 1.02

The recorded fold change of Cadaverine concentration for Cc1c(OCC(F)(F)F)ccnc1C[S+]([O-])c1nc2ccccc2[nH]1 (stereo not drawn) [Lansoprazole] (20 µM) is 1.03

The recorded fold change of Cadaverine concentration for CC[N+](C)(CC)CCOC(=O)C1c2ccccc2Oc2ccccc21 [Methantheline bromide] (20 µM) is 1.02

The recorded fold change of Cadaverine concentration for CCc1oc2ccccc2c1C(=O)c1cc(I)c(O)c(I)c1 [Benziodarone] (20 µM) is 1.05

The recorded fold change of Cadaverine concentration for O=C(OCCOCCO)c1ccccc1Nc1cccc(C(F)(F)F)c1 [Etofenamate] (20 µM) is 1.02

The recorded fold change of Cadaverine concentration for CNCCCC1c2ccccc2C=Cc2ccccc21 [Protriptyline hydrochloride] (20 µM) is 1.12

The recorded fold change of Cadaverine concentration for CC(=O)Oc1ccccc1C(=O)Oc1ccccc1C(=O)O [Acetylsalicylsalicylic acid] (20 µM) is 0.983

The recorded fold change of Cadaverine concentration for CCC(=O)O[C@]1(C(=O)SCF)[C@H](C)C[C@H]2[C@@H]3C[C@H](F)C4=CC(=O)C=C[C@]4(C)[C@@]3(F)[C@@H](O)C[C@@]21C [Fluticasone propionate] (20 µM) is 0.995

The recorded fold change of Cadaverine concentration for Cc1nnc(SCC2=C(C(=O)O)N3C(=O)[C@@H](NC(=O)Cn4cnnn4)[C@H]3SC2)s1 [Cefazolin sodium salt] (20 µM) is 0.613

The recorded fold change of Cadaverine concentration for O=C(Oc1cccc2cccnc12)c1ccccc1 [Benzoxiquine] (20 µM) is 0.995

The recorded fold change of Cadaverine concentration for Cc1cccc(C)c1NC(=O)C(C)N (stereo not drawn) [Tocainide hydrochloride] (20 µM) is 0.983

The recorded fold change of Cadaverine concentration for CNCC(O)c1ccc(O)c(O)c1 (stereo not drawn) [Racepinephrine hydrochloride] (20 µM) is 0.94

The recorded fold change of Cadaverine concentration for COc1cc(OC)c(C(=O)CCCN2CCCC2)c(OC)c1 [Buflomedil hydrochloride] (20 µM) is 1.03

The recorded fold change of Cadaverine concentration for C#Cc1cccc(Nc2ncnc3cc(OCCOC)c(OCCOC)cc23)c1 [Erlotinib] (20 µM) is 1.02

The recorded fold change of Cadaverine concentration for CC(N/C(=N\C#N)Nc1ccncc1)C(C)(C)C (stereo not drawn) [Pinacidil monohydrate] (20 µM) is 1.04

The recorded fold change of Cadaverine concentration for CN(C(=O)C(Cl)Cl)c1ccc(OC(=O)c2ccco2)cc1 [Diloxanide furoate] (20 µM) is 0.973

The recorded fold change of Cadaverine concentration for C[N+](C)(C)CCCCCC[N+](C)(C)C [Hexamethonium dibromide dihydrate] (20 µM) is 0.984

The recorded fold change of Cadaverine concentration for Nc1ccc(S(=O)(=O)Nc2ncccn2)cc1 [Sulfadiazine] (20 µM) is 1.03

The recorded fold change of Cadaverine concentration for O=C(COc1ccc(Cl)cc1)N1CCN(Cc2ccc3c(c2)OCO3)CC1 [Fipexide hydrochloride] (20 µM) is 0.953

====

fold change of Tryptamine concentration overview
Test system: Ruminococcus gnavus DSM 108212
Test: fold change of Tryptamine concentration vs plate DMSO controls (fold change (ratio)); higher = more amine produced, active = hit call of the paper (significant change in both replicates, either direction)
Conditions: incubation time: 27 h, anaerobic, 37 °C
Structures can show the parent of a compound that is named as a salt.
Returns: the value as a bare number; no unit string appended.

compound: COc1ccccc1Oc1c(NS(=O)(=O)c2ccc(C(C)(C)C)cc2)nc(-c2ncccn2)nc1OCCO [Bosentan] (20 µM)
subject of test: Ruminococcus gnavus DSM 108212
fold change of Tryptamine concentration: 0.978
//
compound: CC1(C)O[C@@H]2[C@@H](CO[C@@]3(COS(N)(=O)=O)OC(C)(C)O[C@@H]23)O1 [Topiramate] (20 µM)
subject of test: Ruminococcus gnavus DSM 108212
fold change of Tryptamine concentration: 0.947

Item C/C(=C(\CCOC(=O)c1ccccc1)SS/C(CCOC(=O)c1ccccc1)=C(/C)N(C=O)Cc1cnc(C)nc1N)N(C=O)Cc1cnc(C)nc1N [Bisbentiamine] (20 µM) was tested on Ruminococcus gnavus DSM 108212; the reported fold change of Tryptamine concentration is 0.917

Item CC(=O)/N=c1/sc(S(N)(=O)=O)nn1C [Methazolamide] (20 µM) was tested on Ruminococcus gnavus DSM 108212; the reported fold change of Tryptamine concentration is 1.07

Item COc1ccc2c(c1)c(CC(=O)OC/C=C(\C)CC/C=C(\C)CCC=C(C)C)c(C)n2C(=O)c1ccc(Cl)cc1 [Indometacin farnesil] (20 µM) was tested on Ruminococcus gnavus DSM 108212; the reported fold change of Tryptamine concentration is 1.03

Item CCOc1ccc2ccccc2c1C(=O)N[C@@H]1C(=O)N2[C@@H]1SC(C)(C)[C@@H]2C(=O)O [Nafcillin sodium salt monohydrate] (20 µM) was tested on Ruminococcus gnavus DSM 108212; the reported fold change of Tryptamine concentration is 0.0506

Item CO[C@@]12[C@H](COC(N)=O)C3=C(C(=O)C(C)=C(N)C3=O)N1C[C@@H]1N[C@@H]12 [Mitomycin C] (20 µM) was tested on Ruminococcus gnavus DSM 108212; the reported fold change of Tryptamine concentration is 0.153

Item CN[C@@H]1[C@@H](O[C@H]2O[C@H](CO)[C@@H](N)[C@H](O)[C@H]2O)OC2C[C@@H](N)[C@@H](O[C@H]3[C@H](O)[C@@H](O)[C@H](N)C[C@@H]3N)OC2[C@@H]1O (stereo partly drawn) [Apramycin] (20 µM) was tested on Ruminococcus gnavus DSM 108212; the reported fold change of Tryptamine concentration is 0.96

Item CNC(=C[N+](=O)[O-])NCCSCc1csc(CN(C)C)n1 [Nizatidine] (20 µM) was tested on Ruminococcus gnavus DSM 108212; the reported fold change of Tryptamine concentration is 0.971

====

Test system: Ruminococcus gnavus DSM 108212
Assay: fold change of Tryptamine concentration vs plate DMSO controls (fold change (ratio)); higher = more amine produced, active = hit call of the paper (significant change in both replicates, either direction)
Conditions: incubation time: 27 h, anaerobic, 37 °C
Structures can show the parent of a compound that is named as a salt.
fold change of Tryptamine concentration overview
Returns: the value as a bare number; no unit string appended.

compound: C#CCN(C)CCCOc1ccc(Cl)cc1Cl [Clorgyline hydrochloride] (20 µM)
subject of test: Ruminococcus gnavus DSM 108212
fold change of Tryptamine concentration: 0.971

The recorded fold change of Tryptamine concentration for CCOC(=O)OC(C)OC1=C(C(=O)Nc2ccccn2)N(C)S(=O)(=O)c2ccccc21 (centres undefined) [Ampiroxicam] (20 µM) is 0.999

The recorded fold change of Tryptamine concentration for CCCCOc1cc(C(=O)NCCN(CC)CC)c2ccccc2n1 [Dibucaine] (20 µM) is 1

The recorded fold change of Tryptamine concentration for Cc1nccn1CC1CCc2c(c3ccccc3n2C)C1=O (centres undefined) [Ondansetron hydrochloride] (20 µM) is 1.01

====

fold change of Putrescine concentration overview
System: Klebsiella aerogenes DSM 30053
Assay: fold change of Putrescine concentration vs plate DMSO controls (fold change (ratio)); higher = more amine produced, active = hit call of the paper (significant change in both replicates, either direction)
Conditions: incubation time: 27 h, anaerobic, 37 °C
Counter-ions that a name gives are not always drawn.
Returns: the value as a bare number; no unit string appended.

Use these answered entries as a reference point.
compound: CCCC(=O)N1CCCN(c2nc(N)c3cc(OC)c(OC)cc3n2)CC1 [Bunazosin hydrochloride] (20 µM)
quantitative result: 0.996

compound: COc1cc(NS(=O)(=O)c2ccc(N)cc2)nc(OC)n1 [Sulfadimethoxine] (20 µM)
quantitative result: 0.946

compound: CC(=O)Nc1ccccc1 [Acetanilide] (20 µM)
quantitative result: 1.02

compound: O=C(O)COCCN1CCN(C(c2ccccc2)c2ccc(Cl)cc2)CC1 (stereo unspecified) [Cetirizine dihydrochloride] (20 µM)
quantitative result: 0.997

compound: c1ccc2c(c1)Cc1ccccc1-2 [Fluorene] (20 µM)
quantitative result: 1.02

The recorded fold change of Putrescine concentration for COCCCC/C(=N\OCCN)c1ccc(C(F)(F)F)cc1 [Fluvoxamine maleate] (20 µM) is 0.987

The recorded fold change of Putrescine concentration for CC(C)NC[C@H](O)COc1cccc2ccccc12 [(S)-(-)-Propranolol hydrochloride] (20 µM) is 0.993

The recorded fold change of Putrescine concentration for CCN1CCCC1CNC(=O)c1cc(S(=O)(=O)CC)c(N)cc1OC (stereo unspecified) [Amisulpride] (20 µM) is 0.999

The recorded fold change of Putrescine concentration for CN(C)CC/C=C1\c2ccccc2CSc2ccccc21 [Dosulepin hydrochloride] (20 µM) is 0.941

The recorded fold change of Putrescine concentration for Nc1nc2c(ncn2COC(CO)CO)c(=O)[nH]1 [Ganciclovir] (20 µM) is 1.02

The recorded fold change of Putrescine concentration for Cc1cc(NC(=O)C2=C(O)c3ccccc3S(=O)(=O)N2C)no1 [Isoxicam] (20 µM) is 1.01

The recorded fold change of Putrescine concentration for OCCN1CCN(CCCN2c3ccccc3Sc3ccc(Cl)cc32)CC1 [Perphenazine] (20 µM) is 1.02

The recorded fold change of Putrescine concentration for CN(C)CCc1c[nH]c2ccc(Cn3cncn3)cc12 [Rizatriptan benzoate] (20 µM) is 1.01

The recorded fold change of Putrescine concentration for CCN1CCC[C@H]1CNC(=O)c1c(O)c(Cl)cc(Cl)c1OC [Raclopride] (20 µM) is 0.97

The recorded fold change of Putrescine concentration for N#Cc1ccc(Oc2ccc3c(c2)COB3O)cc1 [Crisaborole] (20 µM) is 0.987

The recorded fold change of Putrescine concentration for COc1cc(OC)c(C(=O)CCCN2CCCC2)c(OC)c1 [Buflomedil hydrochloride] (20 µM) is 1.02
